test system: SK-OV-3; test: NCI tumour cell line growth inhibition, 48 h
Calls of active or inactive are those of the source. Rule as the data show it: active = GI50 up to about 1.1 µM and inactive = higher.
resultType: GI50

For the molecule COC(=O)C1(C(C)C)CCc2c(OC)ccc(OC)c2C1=O (stereo not given) , report GI50.
> 100 µM (inactive)

For the molecule CC(=O)Nc1ccc2c3c(cc(O)c2c1)N(C(=O)CCCCCC(=O)Nc1ccc2c4c(cc(O)c2c1)N(C(=O)OC(C)(C)C)CC4CCl)CC3CCl (stereo not given) , report GI50.
3.54 µM (inactive)

For the molecule "COC(=O)[C@H](Cc1c[nH]c2ccccc12)NC(=O)c1ccc(CNC(=O)/C=C/c2cccc(Oc3ccccc3)c2)cc1" , report GI50.
> 100 µM (inactive)

For the molecule OC12c3ccccc3C1CCCCCCCCCC21OCCCO1 (stereo not given) , report GI50.
> 100 µM (inactive)

For the molecule "c1ccc2c(c1)[nH]c1c2nc2ncccn21" , report GI50.
> 100 µM (inactive)

Values were extracted from ChEMBL document CHEMBL1201862.
